Taken from patent US6914045B2.

Provide the reported MIC Streptococcus pyogenes (GC 4563) of each item.
- Test system: Streptococcus sp.
- Protocol Description: in vitro antibacterial evaluation, MIC by broth dilution
- Assay type: cell-based
- Condition Notes: strain GC 4563; broth dilution, 18 hours at 35° C.

Reported MIC Streptococcus pyogenes (GC 4563) for Cc1ccc(Oc2ccc(C3OCC4OC(OC5C(CO)OC(Oc6ccc(CC7NC(=O)C(C(C)c8ccccc8)NC(=O)CNC(=O)C(CO)NC(=O)C(C(O)C8CNC(=N)N8C8OC(CO)C(O)C(O)C8O)NC(=O)C(C(O)C8CNC(=N)N8)NC7=O)cc6)C(O)C5O)C(O)C(O)C4O3)cc2)cc1 (centres unmarked) [Example 174] was <0.06 µg/mL

Reported MIC Streptococcus pyogenes (GC 4563) for CC(c1ccccc1)C1NC(=O)CNC(=O)C(CO)NC(=O)C(C(O)C2CNC(=N)N2C2OC(CO)C(O)C(O)C2O)NC(=O)C(C(O)C2CNC(=N)N2)NC(=O)C(Cc2ccc3oc(-c4ccoc4)nc3c2)NC1=O (centres unmarked) [Example 38] was 32 µg/mL
